target: Full-length inactive AKT1 (Homo sapiens, UniProt P31749); assay: Inactive Akt Alpha Screen Assay; assay type: biochemical; settings: values not marked with "*"; read-out: Akt1 IC50, (AlphaScreen)
Sequence (P31749 whole entry): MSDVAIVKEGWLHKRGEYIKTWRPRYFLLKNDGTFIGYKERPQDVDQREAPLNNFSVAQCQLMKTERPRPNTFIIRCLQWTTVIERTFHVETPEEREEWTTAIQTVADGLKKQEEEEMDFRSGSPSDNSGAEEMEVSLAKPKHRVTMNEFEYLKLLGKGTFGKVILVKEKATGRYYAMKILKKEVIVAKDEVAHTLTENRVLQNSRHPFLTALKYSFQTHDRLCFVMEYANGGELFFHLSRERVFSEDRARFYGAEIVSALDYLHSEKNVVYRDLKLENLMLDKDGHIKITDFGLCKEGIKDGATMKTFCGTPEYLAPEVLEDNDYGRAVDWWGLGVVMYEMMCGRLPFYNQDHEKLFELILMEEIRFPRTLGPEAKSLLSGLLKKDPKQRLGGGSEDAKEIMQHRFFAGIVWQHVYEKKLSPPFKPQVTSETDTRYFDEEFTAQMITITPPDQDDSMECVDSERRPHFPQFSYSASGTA
Flag rule - IC50 less than 70 nM flags 1.0; the remaining entries get 0.0.

INPUT: Check if IC50 falls below 70 nM for Cc1cnc2c(c1)nc(-c1cccnc1N)n2-c1ccc(CNC(=O)c2ccc3ncccc3c2)cc1 .
OUTPUT: 0.0

INPUT: Is IC50 strictly under 70 nM for the entry COc1cccc(-c2ccc3nc(-c4cccnc4N)n(-c4ccc(C5(N)CCC5)cc4)c3n2)c1 ?
OUTPUT: 1.0

INPUT: Does the reported IC50 of the following compound sit strictly below 70 nM? COc1cccc(NC(=O)c2ccc(-n3c(-c4cccnc4N)nc4cccnc43)cc2)c1
OUTPUT: 0.0

INPUT: Strictly below 70 nM: is that where IC50 of Cc1cnc2c(c1)nc(-c1cccnc1N)n2-c1ccc(CNC(=O)c2ccc(Cl)c(C)c2)cc1 sits?
OUTPUT: 0.0

INPUT: Decide: IC50 of Nc1ncccc1-c1nc2ccc(N3CCCCC3)nc2n1-c1ccc(CNC(=O)c2ccc(Br)cc2)cc1 strictly below 70 nM?
OUTPUT: 0.0

INPUT: Record N#Cc1ccc(-c2ccc3nc(-c4cccnc4N)n(-c4ccc(CNC(=O)c5cccc(F)c5)cc4)c3n2)cc1 : is its IC50 strictly below 70 nM?
OUTPUT: 0.0

INPUT: API: query returns whether the compound falls strictly under 70 nM in IC50. Query: Nc1ncc(Cl)cc1-c1nc2ccc(-c3ccccc3)nc2n1-c1ccc(C2(N)CCC2)cc1
OUTPUT: 1.0

INPUT: Item CC(=O)Nc1cccc(NC(=O)Cc2ccc(-n3c(-c4cccnc4N)nc4ccc(C)nc43)cc2)c1 : IC50 beneath 70 nM, strictly?
OUTPUT: 0.0

INPUT: Strictly below 70 nM: is that where IC50 of CC(C)(C)OC(=O)NCc1ccc(-n2c(-c3cccnc3N)nc3ccc(-c4ccccc4)nc32)cc1 sits?
OUTPUT: 0.0

INPUT: Determine whether this compound shows IC50 lower than 70 nM (ties excluded): Cc1cnc2c(c1)nc(-c1cccnc1N)n2-c1ccc(CNC(=O)c2ccc(C)s2)cc1
OUTPUT: 0.0

INPUT: Determine whether this compound shows IC50 lower than 70 nM (ties excluded): Nc1ncccc1-c1nc2ccc(-c3cc[nH]c3)nc2n1-c1ccc(C2(N)CCC2)cc1
OUTPUT: 1.0

INPUT: Determine whether this compound shows IC50 lower than 70 nM (ties excluded): Cc1ccnc2c1nc(-c1cccnc1N)n2-c1ccc(CNC(=O)c2cccc(F)c2)cc1
OUTPUT: 0.0

INPUT: Decide: IC50 of Cc1cnc2c(c1)nc(-c1cccnc1N)n2-c1ccc(CNC(=O)c2cccc(C(F)(F)F)c2)cc1 strictly below 70 nM?
OUTPUT: 0.0

INPUT: Consider Cc1ccc2nc(-c3cccnc3N)n(-c3ccc(CC(=O)Nc4ccccc4)cc3)c2n1 . Does its IC50 lie strictly below 70 nM?
OUTPUT: 1.0

INPUT: Here's an entry: Nc1ncccc1-c1nc2ccc(-c3ccco3)nc2n1-c1ccc(CNC(=O)c2cccc(F)c2)cc1 . Is its IC50 below 70 nM?
OUTPUT: 1.0

INPUT: Below 70 nM on IC50? Entry Cc1cc(C)cc(C(=O)NCc2ccc(-n3c(-c4cccnc4N)nc4cc(C)cnc43)cc2)c1
OUTPUT: 0.0

INPUT: Criterion: IC50 strictly below 70 nM. Is it met by CC(=O)Nc1cccc(C(=O)NCc2ccc(-n3c(-c4cccnc4N)nc4cc(C)cnc43)cc2)c1 ?
OUTPUT: 1.0
